- ASSAY_SYSTEM: Aβ40 (Homo sapiens)
- Sequence (P05067 672-711, species assumed): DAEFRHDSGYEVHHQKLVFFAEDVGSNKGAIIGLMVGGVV
- METHOD_NOTES: ThT Aβ aggregation assay (kinetic Thioflavin T fluorescence)
- Type: biochemical
- EXPERIMENTAL_CONDITIONS: compound 10 μM; 20 μM Aβ; DMSO control at 80 hr = 0% inhibition; number in parenthesis = compound ID 1027 in that experiment; read-out: % inhib Thioflavin T Aβ 40 10 μM
ASSAY_READOUT: inhibition at 10 µM (%)
Your answer is read as %, so omit the unit and give the number.

- COMPOUND: "O=C(C1CN(c2cc(-c3cccc(C(O)C(F)(F)F)c3)cc3nonc23)C1)N1CCCC1 (centres unmarked)"
  ASSAY_SYSTEM: "Aβ40 (Homo sapiens)"
  VALUE_UNITS: "%"
  TEST_VALUE: 48

Entry CS(=O)(=O)N1CC=C(c2cc(N3CC(CN4CCCC4)C3)c3nonc3c2)CC1 has what inhibition at 10 µM?
35

Entry c1cc(-c2cc(N3CC(CN4CCCC4)C3)c3nonc3c2)ccn1 has what inhibition at 10 µM?
50

---

What follows is a collection of IC50 values obtained with Terminally biotinylated beta-amyloid (Aβ42) (Homo sapiens, UniProt P05067).
Sequence (P05067 672-713, species assumed): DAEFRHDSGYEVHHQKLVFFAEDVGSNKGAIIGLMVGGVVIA

Give IC50 (Terminally biotinylated beta-amyloid (Aβ42) (Homo sapiens, UniProt P05067)) of the following compound: NC(=O)c1cc(N2CC(CN3CCCC3)C2)c2nonc2c1
25.3 µM

Give IC50 (Terminally biotinylated beta-amyloid (Aβ42) (Homo sapiens, UniProt P05067)) of the following compound: OC1(c2ccc(-c3cc(N4CC(CN5CCOCC5)C4)c4nonc4c3)cc2)COC1
3.2 µM

Give IC50 (Terminally biotinylated beta-amyloid (Aβ42) (Homo sapiens, UniProt P05067)) of the following compound: O=C(C1CN(c2cc(-c3cccc(C(O)C(F)(F)F)c3)cc3nonc23)C1)N1CCCC1 (centres unmarked)
10.8 µM

---

- ASSAY_SYSTEM: Terminally biotinylated beta-amyloid (Aβ42) (Homo sapiens, UniProt P05067)
Each entry below carries its reported pIC50.
Remember, pIC50 is on a log scale: it is -log10 of the molar concentration.

// below: answered compounds
- COMPOUND: "N#Cc1cccc(-c2cc(N3CC(CN4CCOCC4)C3)c3nonc3c2)c1"
  pIC50: 4.83
- COMPOUND: "CC(=O)c1ccc(-c2cc(N3CC(CN4CCCC4)C3)c3nonc3c2)cc1"
  pIC50: 4.92
- COMPOUND: "c1nc(-c2cc(N3CC(CN4CCCC4)C3)c3nonc3c2)cs1"
  pIC50: 5.16
- COMPOUND: "COc1ccc(-c2cc(N3CC(CN4CCOCC4)C3)c3nonc3c2)cc1F"
  pIC50: 5.24
- COMPOUND: "CCN(CC)C(=O)c1cc(N2CC(CN3CCCC3)C2)c2nonc2c1"
  pIC50: 5.74

Entry COCCN1CC=C(c2cc(N3CC(CN4CCCC4)C3)c3nonc3c2)CC1 has what pIC50?
5.09

Entry c1cncc(-c2cc(N3CC(CN4CCCC4)C3)c3nonc3c2)c1 has what pIC50?
4.91

Entry OCc1ccccc1-c1cc(N2CC(CN3CCCC3)C2)c2nonc2c1 has what pIC50?
4.63

Entry CN1CC=C(c2cc(N3CC(CN4CCCC4)C3)c3nonc3c2)CC1 has what pIC50?
5.17

Entry Cc1cc(C)cc(-c2cc(N3CC(CN4CCCC4)C3)c3nonc3c2)c1 has what pIC50?
5.35

Entry c1csc(-c2cc(N3CC(CN4CCCC4)C3)c3nonc3c2)n1 has what pIC50?
5.17

Entry OC(c1cnc(-c2cc(N3CC(CN4CCCC4)C3)c3nonc3c2)s1)C(F)(F)F (stereo not drawn) has what pIC50?
5.12

Entry Cc1ccc(-c2cc(N3CC(CN4CCCC4)C3)c3nonc3c2)c2ccccc12 has what pIC50?
5.70

Entry OC(c1cc(-c2cc(N3CC(CN4CCCC4)C3)c3nonc3c2)cs1)C(F)(F)F (stereo not drawn) [compound 1535] has what pIC50?
5.54

Entry OC(/C=C/c1cc(N2CC(CN3CCOCC3)C2)c2nonc2c1)C(F)(F)F (stereo not drawn) has what pIC50?
4.66

Entry c1cc(-c2cc(N3CC(CN4CCCC4)C3)c3nonc3c2)ccn1 has what pIC50?
5.11
